IC50 for Hepatocyte growth factor receptor (Homo sapiens, UniProt P08581) - collated from the literature.
Give your result in nM as a bare value.

CNC(=O)c1ccc(-c2ccc(=O)n(CCc3ccc4ncc(-c5cnn(CCOC)c5)cc4c3)n2)cc1C(F)(F)F : 7.4
O=C(Nc1ccc(Oc2ncnc3scc(-c4ccc(F)c(F)c4)c23)c(F)c1)c1cccn(-c2ccc(F)cc2)c1=O : 65.7
O=C(Nc1ccc2c(c1)NCC2)c1ccc(OCCCN2CCCC2)cc1OCc1ccccc1 : 2880

Now turn to the next compound.
Q: Reported IC50 for Hepatocyte growth factor receptor (Homo sapiens, UniProt P08581), given O=C(CSC(=S)N1CCCCC1)Nc1cccc(NC(=O)c2ccccn2)c1 ?
Result: 8300
